Measured pEC50 values are reported for all entries that follow.
System: Z-138 cells
Experiment: Z-138 Proliferation Assay (Cell Titer Glo)
Assay type: cell-based
Conditions: Homo sapiens, 120 h, 5 days incubation
pEC50: −log10 of the molar value.

Reference set (5 entries):
Compound	pEC50
CS(=O)(=O)N1CCC(Nc2cncc(C(=O)NC[C@H](O)CN3Cc4ccccc4C3)c2)C1 (stereo partly shown)	< 4.70
O=C(NC[C@H](O)CN1CCCc2ccccc2C1)c1cc(NC2COC2)ncn1	< 5.30
CC(=O)N1CCC(Nc2cc(C(=O)NC[C@H](O)CN3CCc4ccccc43)ccn2)CC1	< 5.30
O=C(NCC(O)CN1Cc2ccccc2C1)c1cccc(-c2ccccn2)c1 (stereo not shown)	< 4.70
O=C(COc1cccc2cccnc12)NCC(O)CN1Cc2ccccc2C1 (stereo not shown)	< 4.70

Enquiry: If you can, please state the reported pEC50 value of `CC(=O)N1CC(Nc2cc(C(=O)NC[C@H](O)CN3CCCCc4ccccc43)ncn2)C1` .
Return: < 5.30

Enquiry: Quick one: pEC50 for `O=C(NC[C@H](O)CN1CCc2ccccc21)c1cc(NC2COC2)ncn1` ?
Return: < 5.30

Enquiry: Entry under review: `Cc1nc(NC2COC2)cc(C(=O)NC[C@H](O)CN2Cc3ccccc3C2)n1` . Reported pEC50?
Return: < 4.70

Enquiry: What does the record list as pEC50 for `CC(=O)N1CCC(Nc2cc(C(=O)NC[C@H](O)CN3CCCCc4ccccc43)ncn2)CC1` ?
Return: < 5.30

Enquiry: Could you tell me which pEC50 is on file for `CC(=O)N1CC(Nc2cc(C(=O)NC[C@H](O)CN3CCc4ccccc43)ncn2)C1` ?
Return: 4.30 to 5.00

Enquiry: Which pEC50 is reported for this compound? `O=C(NC[C@H](O)CN1Cc2ccccc2C1)c1cc(NC2CCOCC2)ncn1`
Return: 5.00 to 6.00

Enquiry: Please report the recorded pEC50 for `O=C(NC[C@H](O)CN1Cc2ccccc2C1)c1cccc(NC2CCOCC2)c1` .
Return: 4.30 to 5.00

Enquiry: Item `CC(=O)N1CCC(Nc2cc(C(=O)NC[C@H](O)CN3CCc4ccccc43)ncn2)CC1` has what recorded pEC50?
Return: < 5.30
